Give pEC50 for every item shown.
STUDY TARGET: Mm_Fpr1 (Mus musculus)
Construct: expressed in transfected cells
Sequence (P33766 whole entry): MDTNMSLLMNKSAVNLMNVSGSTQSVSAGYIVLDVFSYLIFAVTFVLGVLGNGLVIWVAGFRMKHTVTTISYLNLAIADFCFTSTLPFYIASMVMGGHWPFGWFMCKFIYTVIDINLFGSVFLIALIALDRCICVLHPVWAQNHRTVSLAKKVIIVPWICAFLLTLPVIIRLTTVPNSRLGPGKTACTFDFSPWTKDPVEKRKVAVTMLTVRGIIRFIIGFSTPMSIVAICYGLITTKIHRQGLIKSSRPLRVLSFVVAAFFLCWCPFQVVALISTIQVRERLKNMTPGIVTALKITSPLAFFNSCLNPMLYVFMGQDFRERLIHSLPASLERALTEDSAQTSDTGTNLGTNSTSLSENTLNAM
EXPERIMENT: BRET receptor-RLuc8 interaction with Venus-mGsi
Format: cell-based
Where a SMILES comes first, the peptide text is derived from it. The star is where a group is joined. For = O=C*
Quick note: pEC50 means taking -log10 of the concentration in moles per liter.

Qu. Reported pEC50, compound CSCC[C@H](NC=O)C(=O)N[C@@H](CC(C)C)C(=O)N[C@@H](Cc1ccccc1)C(=O)N[C@@H](CCCCN)C(=O)O [fMLFK, fMet-Leu-Phe-Lys] (For-MLFK-OH) : ____
Ans. 5.02

Qu. Please answer likewise for CSCC[C@H](NC=O)C(=O)N[C@@H](CC(C)C)C(=O)N[C@@H](Cc1ccccc1)C(=O)O
Ans. 4.93

Qu. Please answer likewise for COc1cc(F)c([C@@H]2CNC(=O)[C@H]2NC(=O)Nc2ccccc2)c(F)c1
Ans. 5.85
